Entry source: patent US20180305450A1

Parameter: kon. Scope: all listed entries.
target: T1, recombinant biotinylated human PAR2 extracellular domain (residues 1-75), N-terminal AviTag, C-terminal Flag … (human, UniProt P55085 26-75, biotin on the AviTag (enzymatic biotinylation)); assay: Biacore SPR 25 C, pH 7.4
T1 construct: also called Bio-human-PAR2 ECD; human PAR2 ECD; not shown: N-terminal AviTag (Avidity LLC); C-terminal Flag and poly Histidine tags
T1 sequence (P55085 26-75): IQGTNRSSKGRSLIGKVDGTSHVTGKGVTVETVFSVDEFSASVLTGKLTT
Provide only the numeric value, understood in M⁻¹ s⁻¹.

Suppose we examine the binder PaB670129 Fab (Fab, V domains shown, Fab; also called ZZ1RUE-F02) VH: EVQLLESGGGLVQPGGSLRLSCAASGFTFSSYAMNWVRQAPGKGLEWVSTISYHGSHISYHDSVHHRFTISRDNSKNTLYLQMNSLRAEDTAVYYCARIHHDPMDVWGQGTLVTVSS VL: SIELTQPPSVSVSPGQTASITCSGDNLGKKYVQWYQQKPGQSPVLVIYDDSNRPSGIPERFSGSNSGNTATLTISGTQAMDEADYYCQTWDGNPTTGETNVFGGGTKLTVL ; what kon value has been reported?
8.2e+06

Suppose we examine the binder PaB670120 Fab (Fab, V domains shown, Fab; also called ZZ1RUC-C11) VH: EVQLLESGGGLVQPGGSLRLSCAASGFTFSSYAMNWVRQAPGKGLEWVSTISYHGHHISYADSHHHRFTISRDNSKNTLYLQMNSLRAEDTAVYYCARINHDPMDVWGQGTLVTVSS VL: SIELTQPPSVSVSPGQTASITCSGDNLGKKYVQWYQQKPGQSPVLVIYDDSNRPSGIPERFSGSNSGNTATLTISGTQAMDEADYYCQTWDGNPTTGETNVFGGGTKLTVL ; what kon value has been reported?
5.54e+06

Suppose we examine the binder PaB670128 Fab (Fab, V domains shown, Fab; also called ZZ1RUE-A01) VH: EVQLLESGGGLVQPGGSLRLSCAASGFTFSSYAMNWVRQAPGKGLEWVSTISYHGHHISYADSHHHRFTISRDNSKNTLYLQMNSLRAEDTAVYYCARIHHDPMDVWGQGTLVTVSS VL: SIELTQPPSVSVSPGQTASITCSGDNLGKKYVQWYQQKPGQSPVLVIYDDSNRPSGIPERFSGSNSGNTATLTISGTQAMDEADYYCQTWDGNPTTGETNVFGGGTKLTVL ; what kon value has been reported?
5.95e+06
